# Test system: Colo205 tumor cells
# Test: Method C: Cell Growth Inhibition Assay (CellTiter-Glo), Colo205
# Type: cell-based
# Experimental context: Homo sapiens, COLO 205, 72 h, 3 days, 4-parameter fit
Here the recorded IC50 is given for each entry.

| Molecule | Target under test | Quantity name | Obs value |
| --- | --- | --- | --- |
| CN1CCc2ccc(Nc3nccc(-c4sc(CS(=O)(=O)C(C)(C)C)nc4-c4cccc(NC(=O)c5c(F)cccc5F)c4)n3)cc2C1 [Example 120] | Colo205 tumor cells | IC50 | 100 to 1000 nM |
| Cc1nc(-c2cccc(NC(=O)c3ccc(F)cc3)c2)c(-c2ccnc(Nc3ccc(OCCN(C)C)c(Cl)c3)n2)s1 [Example 134] | Colo205 tumor cells | IC50 | > 1000 nM |
| CN(C)CCOc1ccc(Nc2nccc(-c3sc(-c4ccc(O)cc4)nc3-c3cccc(NC(=O)c4c(F)cccc4F)c3)n2)cc1Cl [Example 139] | Colo205 tumor cells | IC50 | 100 to 1000 nM |

For the molecule shown here, NS(=O)(=O)CCc1cccc(Nc2nccc(-c3scnc3-c3cccc(NC(=O)c4c(F)cccc4F)c3)n2)c1 [Example 95] , give the reported IC50. > 1000 nM

What would you report for CCN(CC)CCOc1cccc(Nc2nccc(-c3scnc3-c3cccc(NC(=O)c4cc(F)ccc4F)c3)n2)c1 [Example 97] ? > 1000 nM

What would you report for CC(C)(C)S(=O)(=O)Cc1nc(-c2cccc(NC(=O)c3c(F)cccc3F)c2)c(-c2ccnc(Nc3ccc(OCCN4CCCC4)c(Cl)c3)n2)s1 [Example 119] ? 100 to 1000 nM
